Origin of the recorded values: patent US20180215734A1

BWC (%) overview
Tested on: TG1a Human AML Xenograft
TEST PROTOCOL: Antitumor efficacy on TG1a human AML xenograft
Format: in vivo, mouse
STUDY CONDITIONS: 20 mg/kg, Qdx10, IP
Kindly provide the numeric value in % only, without the unit symbol.

1. Cc1cc2c(F)c(Oc3ncnc(Nc4ccc(N5C[C@@H](C)N(C)[C@@H](C)C5)cc4)c3C#N)cc(F)c2[nH]1 | −11.7
2. CCN1CCN(c2ccc(Nc3ncnc(Oc4cc(F)c5[nH]c(C)cc5c4F)c3C#N)cc2)CC1C (stereo not shown) | −3.8
3. Cc1cc2c(F)c(Oc3ncnc(Nc4ccc(N5CCNCC5)cc4)c3C#N)cc(F)c2[nH]1 | −4.0

# next compound below
Input Cc1cc2c(F)c(Oc3ncnc(Nc4ccc(N5C[C@@H](C)N[C@@H](C)C5)cc4)c3C#N)ccc2[nH]1 . Output BWC (%): −5.7
